Biological target: T1, CRBN, Q96SW2;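 also: pooled lentiviral library of zinc finger degron-EGFP fusions in mCherry-positive Jurkat cells, FACS-sorted after compound exposure, with degron abundance counted by next-generation sequencing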
T1 chain: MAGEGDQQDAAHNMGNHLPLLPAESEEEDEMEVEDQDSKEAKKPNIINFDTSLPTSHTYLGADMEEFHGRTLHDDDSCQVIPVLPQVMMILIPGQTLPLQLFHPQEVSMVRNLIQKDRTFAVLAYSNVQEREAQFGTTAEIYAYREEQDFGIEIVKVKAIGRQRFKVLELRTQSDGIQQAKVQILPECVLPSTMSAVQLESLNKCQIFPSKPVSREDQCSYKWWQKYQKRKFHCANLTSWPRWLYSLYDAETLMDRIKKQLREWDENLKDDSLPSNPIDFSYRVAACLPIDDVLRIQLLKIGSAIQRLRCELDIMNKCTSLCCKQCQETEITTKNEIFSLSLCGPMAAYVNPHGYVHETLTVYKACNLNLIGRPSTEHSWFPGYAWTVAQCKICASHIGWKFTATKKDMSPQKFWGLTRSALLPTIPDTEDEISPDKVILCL
Assay: log2 fold change of degron read counts, EGFP-low vs EGFP+ sorted cells (limma voom), compound-induced degradation; higher = more compound-induced degradation of the degron-EGFP fusion; degrons are variants of IKZF1/3 zinc finger 2; compound dose not given here
Settings: Jurkat; 18 h; compound: thalidomide
Over roughly 8,300 sequences, “log2 fold change of degron read counts, EGFP-low vs EGFP+ sorted cells (limma voom), compound-induced degradation” has its median near -1.1; the highest 2% begin near 3.2. Shown is part of a subset that was picked to be rich in the highest values.
The label depends only on log2 fold change of degron read counts: fulfilled if it is at least -0.7, not fulfilled if it is smaller.

>>> print(df.to_string())
                             residue_string  discrete_label
0  FECPICGRGFTQKGNLLRHIKL [46F_47E_49P_50I_52G_53R_54G_55F_67L_, Q9UKT9]       fulfilled
1  LTCNQCGFLCTQKGNLLRHIKL [46L_47T_49N_50Q_52G_53F_54L_55C_67L_, Q9UKT9]   not fulfilled
2  FCCNQCGHNFTQKGNLLRHIKL [46F_47C_49N_50Q_52G_53H_54N_55F_67L_, Q9UKT9]   not fulfilled
3  FDCSVCGHIFTQKGNLLRHIKL [46F_47D_49S_50V_52G_53H_54I_55F_67L_, Q9UKT9]   not fulfilled
4  LFCEICGFTCTQKGNLLRHIKL [46L_47F_49E_50I_52G_53F_54T_55C_67L_, Q9UKT9]       fulfilled
5  LNCEICGFTCTQKGNLLRHIKL [46L_47N_49E_50I_52G_53F_54T_55C_67L_, Q9UKT9]       fulfilled

Data provenance is the supplement of paper PMC12645437.
